Source of measurements: patent US7538107B2

molecular target: progesterone receptor (Homo sapiens); construct: determining a compound's effect on alkaline phosphatase activity in T47D cells; endogenous in cells; host or cells: T47D cells; assay: Effects of progestins and antiprogestins on alkaline phosphatase activity in T47D cells; type: cell-based; conditions: antagonist mode in the presence of 1 nM progesterone, 24 h, read-out: T47D Alkaline Phosphatase Activity IC50 (nM) or % inhibition
Sequence (P06401 whole entry): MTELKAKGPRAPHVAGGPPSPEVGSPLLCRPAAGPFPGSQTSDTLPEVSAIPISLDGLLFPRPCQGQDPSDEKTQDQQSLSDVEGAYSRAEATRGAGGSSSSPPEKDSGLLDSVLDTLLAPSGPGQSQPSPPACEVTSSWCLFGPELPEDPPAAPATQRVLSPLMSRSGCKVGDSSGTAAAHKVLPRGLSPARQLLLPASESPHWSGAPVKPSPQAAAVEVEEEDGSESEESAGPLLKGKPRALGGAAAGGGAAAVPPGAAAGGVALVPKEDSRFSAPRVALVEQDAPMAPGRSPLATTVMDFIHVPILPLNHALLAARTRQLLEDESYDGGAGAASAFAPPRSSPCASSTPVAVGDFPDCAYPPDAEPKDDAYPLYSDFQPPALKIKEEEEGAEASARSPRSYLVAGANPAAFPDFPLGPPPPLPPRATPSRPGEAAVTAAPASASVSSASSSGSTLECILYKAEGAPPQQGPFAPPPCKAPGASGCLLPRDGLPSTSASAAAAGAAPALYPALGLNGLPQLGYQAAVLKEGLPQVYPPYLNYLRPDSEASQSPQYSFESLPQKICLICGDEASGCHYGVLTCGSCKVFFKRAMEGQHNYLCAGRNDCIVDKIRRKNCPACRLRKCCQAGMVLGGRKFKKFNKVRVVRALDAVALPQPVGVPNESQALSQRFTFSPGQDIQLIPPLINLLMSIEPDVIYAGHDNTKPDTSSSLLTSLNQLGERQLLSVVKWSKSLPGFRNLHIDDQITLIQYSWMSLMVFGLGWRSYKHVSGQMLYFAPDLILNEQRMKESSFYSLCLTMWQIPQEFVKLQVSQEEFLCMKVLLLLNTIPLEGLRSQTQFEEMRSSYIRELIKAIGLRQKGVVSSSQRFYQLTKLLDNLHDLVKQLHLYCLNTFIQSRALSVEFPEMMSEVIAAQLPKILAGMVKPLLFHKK
parameter: IC50 (nM)
Report as a plain number; the unit nM is understood.

O=C1OCCCN1c1nc(-c2ccc(Br)cc2)cs1 [Example 3]	238

Proceed to the following item.
Would you please give the reported IC50 of CC1(C)COC(=O)N(c2nc(-c3ccc(Br)cc3)cs2)C1 [Example 4] with progesterone receptor (Homo sapiens)?
1370

* * *

# melting point listing for each entry below

O=C1OCCCN1c1nc(-c2ccc(Br)cc2)cs1	225 to 227 °C
CCC[C@@H]1COC(=O)N1c1nc(-c2ccc(Br)cc2)cs1	114 to 116 °C
CC1(C)COC(=O)N(c2nc(-c3ccc(Br)cc3)cs2)C1	169 to 171 °C

Now let's try a different one.
// fetch melting point given entry C[C@@H]1COC(=O)N1c1nc(-c2ccc(Br)cc2)cs1
197 to 199 °C
